Source listed as PubChem BioAssay (NCI).

Tested on: SN12C renal
method_description: NCI-60 one-dose screen, 48 h (100 = growth as untreated, 0 = no growth, -100 = all killed)
condition_set: 10 µM
The panel holds about 83,000 compounds, 20% with a hit somewhere; the sample as a whole holds those more often.
List of growth values.
Give your result in % as a bare value.

>>> df
                      compound  assay_result
0  O=C(c1ccc(Cl)cc1Cl)N1CCOCC1           105

Query: Requested field: growth. Item: "CS(=O)(=O)Nc1ccc(Nc2c3ccccc3nc3cc([N+](=O)[O-])ccc23)cc1"
Response: 20.3

Query: Requested field: growth. Item: "Nc1c(C(=O)Nc2ccccc2)sc2nc3c(cc12)CCCC3"
Response: 40.1

Query: Requested field: growth. Item: "COc1cc(-c2cc(/C=C/C(=O)c3ccc4c(c3)OCO4)[nH]n2)cc(OC)c1OC"
Response: 63.9

Query: Requested field: growth. Item: O=C(N/N=C/c1ccccc1)C(Oc1ccccc1)c1ccccc1 (centres undefined)
Response: 96.5

Query: Requested field: growth. Item: "COc1ccc([N+](=O)[O-])c(C(=O)O)c1"
Response: 99.9

Query: Requested field: growth. Item: Nc1c(C(=O)Nc2ccccc2)sc2nc3c(cc12)C(O)CCC3 (centres undefined)
Response: 39.6

Query: Requested field: growth. Item: "Cc1ccc(NC(=O)Nc2c(Cl)cccc2Cl)cn1"
Response: 105

Query: Requested field: growth. Item: "CN(C)CCN1C(=O)c2cccc3cc(N)cc(c23)C1=O"
Response: 30.9

---

System: CAKI-1 renal
method_description: NCI-60 one-dose screen, 48 h
condition_set: 10 µM
About 83,000 compounds went through this panel and 20% of them were active in at least one assay; those are over-represented in the sample as a whole. Activity calls are given as the source filed them. The calls were made as follows: active = growth percent below 10; inactive = the rest.
Outcomes you can answer with include only these: 1 = active, -1 = inactive

# count of solved cases: 5
>>> df
                                   molecule  label
0  COc1ccc(Nc2ccnc(NCCNc3ccnc4cc(Cl)ccc34)n2)cc1     -1
1                 CNc1ccc(CSc2ccc(C)cc2)cc1     -1
2                            CCCC#CCN(CC)CC     -1
3  O=[N+]([O-])c1cccc(-c2ncc(-c3ccc(Cl)cc3Cl)[nH]2)c1     -1
4  COc1ccc(-c2nc3sccn3c2-c2nc3c([nH]2)C(=O)c2ccccc2C3=O)cc1     -1

Query: So what was the verdict on "c1ccc([I+]c2ccccc2)cc1" in this test?
Response: -1

Query: So what was the verdict on "COc1cc(Cc2cc(-c3ccc(Cl)cc3)n[nH]c2=O)ccc1O" in this test?
Response: -1

Query: So what was the verdict on "CS(=O)(=O)Nc1cccc(-c2cc(-c3ccccc3Cl)c(C#N)c(N)n2)c1" in this test?
Response: -1

Query: So what was the verdict on "Cc1ccc(-c2n[nH]c(=O)c3noc(-c4ccc(C)cc4)c23)cc1" in this test?
Response: -1

Query: So what was the verdict on "Cc1ccc(CC#N)cc1C" in this test?
Response: -1

Query: So what was the verdict on "Cc1ccc(NC(=O)NC2CCCCC2)cc1" in this test?
Response: -1

Query: So what was the verdict on "O=C(Nc1ccc(CO)cc1)c1ccccc1Nc1ccnc(C(F)(F)F)c1" in this test?
Response: -1

Query: So what was the verdict on "COc1cc(Cl)cc(-c2nn(-c3cccc(NC(=O)Nc4ccc(Cl)c(C(F)(F)F)c4)c3)cc2-c2ccncc2)c1" in this test?
Response: 1

Query: So what was the verdict on CCOC(=O)C1(CC(C)C)CCOC1=O (stereo not given) in this test?
Response: -1

Query: So what was the verdict on "COc1ccc(-c2nc3sc(-c4ccc(OC)cc4)c(-c4ccc(OC)cc4)n3c2/C=C/c2ccc(C(C)C)cc2)cc1" in this test?
Response: -1

Query: So what was the verdict on O=C(CC(C(=O)c1ccccc1)N1CCOCC1)c1ccccc1 (stereo not given) in this test?
Response: -1

Query: So what was the verdict on "COc1ccc(/C(=C2/O[C@@H]([C@H]3COC(C)(C)O3)[C@H]3OC(C)(C)O[C@@H]23)c2cc(OC)c(OC)c(OC)c2)cc1O" in this test?
Response: -1

Query: So what was the verdict on "CN(C)N=Nc1nn(C(=O)Nc2ccc(Cc3ccccc3)cc2)c2ccccc12" in this test?
Response: -1
